Reference source: patent US20190218553

- Measured on: von Willebrand factor (VWF) (Homo sapiens, UniProt P04275 P04275:764-2813)
- Method: filter; Bmax 44%; 2 mM CaCl2, 37 C
- Assay context: tags: factor VIII free, Haematologic Technologies Inc; label: 5'-32P

Binder	Kd
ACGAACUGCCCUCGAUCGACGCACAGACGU (ssRNA, mAmCmGmAmAmCmUmGfCfCfCmUmCmGmAmUmCmGmAfCfGfCmAmCmAmGmAmCmGfUidT) [DTRI-007]	16 nM
